target-desc: HCV NS3 protease (full length NS34a) (Hepatitis C virus genotype 1b)
Construct: The protease activity of the full length NS34a was measured using a FRET-based assay; made in house
Sequence (P26663 1658-1711): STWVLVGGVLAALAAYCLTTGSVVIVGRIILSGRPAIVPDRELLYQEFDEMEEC
Sequence (P26663 1027-1657): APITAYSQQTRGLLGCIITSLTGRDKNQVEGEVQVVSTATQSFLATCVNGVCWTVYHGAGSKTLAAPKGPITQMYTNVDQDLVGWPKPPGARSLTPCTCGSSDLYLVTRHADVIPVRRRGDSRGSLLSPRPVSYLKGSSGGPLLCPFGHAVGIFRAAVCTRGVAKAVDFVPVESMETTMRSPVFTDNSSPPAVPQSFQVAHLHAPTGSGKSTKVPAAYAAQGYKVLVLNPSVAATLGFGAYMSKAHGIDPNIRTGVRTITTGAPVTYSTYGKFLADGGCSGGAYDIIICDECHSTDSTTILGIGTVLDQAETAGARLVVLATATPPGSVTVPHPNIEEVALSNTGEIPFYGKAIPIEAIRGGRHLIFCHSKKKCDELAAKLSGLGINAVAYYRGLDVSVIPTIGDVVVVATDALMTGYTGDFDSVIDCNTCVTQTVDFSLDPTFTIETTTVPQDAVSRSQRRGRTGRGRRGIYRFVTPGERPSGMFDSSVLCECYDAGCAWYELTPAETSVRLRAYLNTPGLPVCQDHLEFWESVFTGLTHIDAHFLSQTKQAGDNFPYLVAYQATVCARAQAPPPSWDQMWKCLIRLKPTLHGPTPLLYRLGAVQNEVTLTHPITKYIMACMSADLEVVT
assay-remarks: HCV NS3 protease assay (FRET, full length NS34a)
Type: biochemical
measurement-setup: protease activity of full length NS34a, FRET peptide substrate; read-out: Activity IC50
Protocol: The HCV NS3 protease functions have been extensively studied and are considered as potential targets for antiviral therapy: see for example the many references listed in the introductory section of this application. Therefore, the activity of the compounds of the invention as anti-HCV agents was assessed using a full length HCV NS3 protease. […]
pIC50: −log10 of the molar value.
Label rule, in plain words: pIC50 of 6 and up is satisfied, under 6 is not satisfied.

A selection of reference data follows.
{"columns": ["compound", "category"],
 "data": [
  ["CC[C@H](N)c1ccc(Cl)c(Oc2ccccc2)c1F [Example 77]", "satisfied"],
  ["CCN(Cc1ccc(Cl)c(Oc2ccccc2)c1F)[C@H]1CC[C@H](N)CC1 [Example 273B]", "not satisfied"],
  ["N[C@@H](c1ccc(F)c(Oc2ccccc2)c1F)[C@H]1CCOC1 (relative stereo) [Example 62]", "not satisfied"],
  ["CC[C@H](NC(C)CO)c1ccc(Cl)c(Oc2ccccc2)c1F (some centres unmarked) [Example 81]", "satisfied"]
]}

Ask: # bool: pIC50 of CC[C@@H](N[C@@H](C)CC(N)=O)c1ccc(Cl)c(Oc2ccc(N)c(C(F)(F)F)c2)c1F [Example 260] >= 6
Result: satisfied

The values you see were collected from patent US20140288040A1.
